B1: TPR 5TU (parent)
chain: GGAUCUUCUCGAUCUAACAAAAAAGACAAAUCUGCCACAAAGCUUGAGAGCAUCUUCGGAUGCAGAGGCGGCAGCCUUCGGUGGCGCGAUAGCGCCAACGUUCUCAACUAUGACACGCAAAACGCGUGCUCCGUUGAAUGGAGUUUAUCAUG

Variants of: B1
Experiment: polymerase ribozyme fitness, log enrichment relative to wild type (log ratio); higher = more active; in vitro selection for triplet polymerase activity
This sample holds only a part of the variants without activity.
Reported polymerase ribozyme fitness (log ratio) values for the following variants.
assayEndpoint: polymerase ribozyme fitness (log ratio)

{"mutations": "U45G U55G A91C U101A A107G", "assayEndpoint": "polymerase ribozyme fitness (log ratio)", "comparisonSymbol": "≤", "measuredResult": -4.2}
{"mutations": "C14U C57A A89G C96U U101A G136U", "assayEndpoint": "polymerase ribozyme fitness (log ratio)", "comparisonSymbol": "≤", "measuredResult": -4.2}
{"mutations": "A22U A26G A49U U102C A138G U144A", "assayEndpoint": "polymerase ribozyme fitness (log ratio)", "comparisonSymbol": "≤", "measuredResult": -4.2}
{"mutations": "U9G A20U G84A U102C A115G", "assayEndpoint": "polymerase ribozyme fitness (log ratio)", "comparisonSymbol": "≤", "measuredResult": -4.2}
{"mutations": "A52G C57A G94U G117U A121C C131G", "assayEndpoint": "polymerase ribozyme fitness (log ratio)", "comparisonSymbol": "≤", "measuredResult": -4.2}
{"mutations": "A26U G46U G48U G81U G83C C99G", "assayEndpoint": "polymerase ribozyme fitness (log ratio)", "comparisonSymbol": "≤", "measuredResult": -4.2}
{"mutations": "A22G U55A A89C", "assayEndpoint": "polymerase ribozyme fitness (log ratio)", "comparisonSymbol": "=", "measuredResult": -0.257}
{"mutations": "U13C A26C A52C", "assayEndpoint": "polymerase ribozyme fitness (log ratio)", "comparisonSymbol": "=", "measuredResult": -3.55}
{"mutations": "U45G C54U A110G", "assayEndpoint": "polymerase ribozyme fitness (log ratio)", "comparisonSymbol": "≤", "measuredResult": -4.2}
{"mutations": "U139A U144A", "assayEndpoint": "polymerase ribozyme fitness (log ratio)", "comparisonSymbol": "=", "measuredResult": -4.15}
{"mutations": "A17G G59A C85U G92C C103A A122U", "assayEndpoint": "polymerase ribozyme fitness (log ratio)", "comparisonSymbol": "≤", "measuredResult": -4.2}
{"mutations": "G34U C51A G84C", "assayEndpoint": "polymerase ribozyme fitness (log ratio)", "comparisonSymbol": "≤", "measuredResult": -4.2}
{"mutations": "A40U C57U A89C C99G A119G", "assayEndpoint": "polymerase ribozyme fitness (log ratio)", "comparisonSymbol": "=", "measuredResult": -1.22}
{"mutations": "C54U C57G G84U C96A", "assayEndpoint": "polymerase ribozyme fitness (log ratio)", "comparisonSymbol": "=", "measuredResult": -3.23}
{"mutations": "A17G A52U G83A C95U", "assayEndpoint": "polymerase ribozyme fitness (log ratio)", "comparisonSymbol": "=", "measuredResult": -3.91}
{"mutations": "C85A U135G A137U", "assayEndpoint": "polymerase ribozyme fitness (log ratio)", "comparisonSymbol": "≤", "measuredResult": -4.2}
{"mutations": "C76G C87G U102G C108A", "assayEndpoint": "polymerase ribozyme fitness (log ratio)", "comparisonSymbol": "≤", "measuredResult": -4.2}
{"mutations": "A12G A16U A26U G83U C87G U145C", "assayEndpoint": "polymerase ribozyme fitness (log ratio)", "comparisonSymbol": "≤", "measuredResult": -4.2}
{"mutations": "U6G A39C C85A A98G G126C", "assayEndpoint": "polymerase ribozyme fitness (log ratio)", "comparisonSymbol": "=", "measuredResult": -3.91}
{"mutations": "U45A C85U", "assayEndpoint": "polymerase ribozyme fitness (log ratio)", "comparisonSymbol": "=", "measuredResult": -3.1}
{"mutations": "U31A C36A A52G C76A C95U G124A G140U U145G", "assayEndpoint": "polymerase ribozyme fitness (log ratio)", "comparisonSymbol": "≤", "measuredResult": -4.2}
{"mutations": "C36U A52G U61A C95A A122U U144A", "assayEndpoint": "polymerase ribozyme fitness (log ratio)", "comparisonSymbol": "≤", "measuredResult": -4.2}
{"mutations": "C8A C93U", "assayEndpoint": "polymerase ribozyme fitness (log ratio)", "comparisonSymbol": "=", "measuredResult": -3.42}
{"mutations": "U82A A120C U130C G143U", "assayEndpoint": "polymerase ribozyme fitness (log ratio)", "comparisonSymbol": "=", "measuredResult": -2.44}
{"mutations": "U61A A91C G100C A142U", "assayEndpoint": "polymerase ribozyme fitness (log ratio)", "comparisonSymbol": "≤", "measuredResult": -4.2}
{"mutations": "A89G A98G G143C", "assayEndpoint": "polymerase ribozyme fitness (log ratio)", "comparisonSymbol": "=", "measuredResult": -3.66}
{"mutations": "C35A A39C A91U A121U", "assayEndpoint": "polymerase ribozyme fitness (log ratio)", "comparisonSymbol": "≤", "measuredResult": -4.2}
{"mutations": "C18G A20U G84U", "assayEndpoint": "polymerase ribozyme fitness (log ratio)", "comparisonSymbol": "=", "measuredResult": -3.75}
{"mutations": "A52C A98G C132G", "assayEndpoint": "polymerase ribozyme fitness (log ratio)", "comparisonSymbol": "≤", "measuredResult": -4.2}
{"mutations": "C54U G86U C93A A97U A120G", "assayEndpoint": "polymerase ribozyme fitness (log ratio)", "comparisonSymbol": "=", "measuredResult": -1.29}
{"mutations": "G80U C118A A119G", "assayEndpoint": "polymerase ribozyme fitness (log ratio)", "comparisonSymbol": "=", "measuredResult": -1.3}
{"mutations": "C96G G112C", "assayEndpoint": "polymerase ribozyme fitness (log ratio)", "comparisonSymbol": "=", "measuredResult": -3.95}
{"mutations": "A19C C54U", "assayEndpoint": "polymerase ribozyme fitness (log ratio)", "comparisonSymbol": "=", "measuredResult": -0.474}
{"mutations": "C57G G88A C96U U139C A142G", "assayEndpoint": "polymerase ribozyme fitness (log ratio)", "comparisonSymbol": "≤", "measuredResult": -4.2}
{"mutations": "A73C A121U G133U", "assayEndpoint": "polymerase ribozyme fitness (log ratio)", "comparisonSymbol": "≤", "measuredResult": -4.2}
{"mutations": "C10U C36U C63A C118U", "assayEndpoint": "polymerase ribozyme fitness (log ratio)", "comparisonSymbol": "≤", "measuredResult": -4.2}
{"mutations": "G42U A73G U78G C93A U146A", "assayEndpoint": "polymerase ribozyme fitness (log ratio)", "comparisonSymbol": "≤", "measuredResult": -4.2}
{"mutations": "U15G A52C C96U U101G C129A", "assayEndpoint": "polymerase ribozyme fitness (log ratio)", "comparisonSymbol": "≤", "measuredResult": -4.2}
{"mutations": "G50A A60U C96U U127A", "assayEndpoint": "polymerase ribozyme fitness (log ratio)", "comparisonSymbol": "=", "measuredResult": -3.79}
{"mutations": "U55A A60G C69U G92U A147U", "assayEndpoint": "polymerase ribozyme fitness (log ratio)", "comparisonSymbol": "=", "measuredResult": -0.244}
{"mutations": "A41C U55A A97G", "assayEndpoint": "polymerase ribozyme fitness (log ratio)", "comparisonSymbol": "=", "measuredResult": -0.161}
{"mutations": "C54U C95G A98G", "assayEndpoint": "polymerase ribozyme fitness (log ratio)", "comparisonSymbol": "=", "measuredResult": -2.01}
{"mutations": "U45C G48C C99A G143A U148C", "assayEndpoint": "polymerase ribozyme fitness (log ratio)", "comparisonSymbol": "≤", "measuredResult": -4.2}
{"mutations": "C5G C93G", "assayEndpoint": "polymerase ribozyme fitness (log ratio)", "comparisonSymbol": "=", "measuredResult": -2.51}
{"mutations": "G81C G126C", "assayEndpoint": "polymerase ribozyme fitness (log ratio)", "comparisonSymbol": "=", "measuredResult": 0.723}
{"mutations": "A17U A19C G42U U56C C76A G88A", "assayEndpoint": "polymerase ribozyme fitness (log ratio)", "comparisonSymbol": "≤", "measuredResult": -4.2}
